Reference source: the supplement of paper PMC11208160

Assay: recombinant barcode read abundance after kanamycin selection (control-corrected) (log10(CPM+1)); higher = more efficient recombination; sequences stand for … in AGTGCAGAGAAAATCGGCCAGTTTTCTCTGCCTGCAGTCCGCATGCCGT…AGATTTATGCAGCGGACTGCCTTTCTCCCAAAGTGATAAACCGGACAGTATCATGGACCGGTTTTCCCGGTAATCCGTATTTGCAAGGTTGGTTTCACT; site = the 11-nt target
Reported recombinant barcode read abundance (log10) values for the following sequences.

Sample records with recombinant barcode read abundance (log10):
CGAGCTCCTTGGGTTCTAACCTGTTGCCT (site CGAGCTCCTAC): 0.582
GCAGGTGCTTGGGTTCTAACCTGTTGCTT (site GCAGGTGCTAA): 1.75
CCAAGCGCTTGGGTTCTAACCTGTTGCCT (site CCAAGCACTAG): 0.589
GAGTCTCCTTGGGTTCTAACCTGTTGCGG (site CTTCGGACTAA): 0.187
CCATCCTCTTGGGTTCTAACCTGTTGCTT (site CCATCCTCTAA): 0.0749
GTCAGCTCTTGGGTTCTAACCTGTTGCTA (site GACCGCTCTTA): 0.127

Kindly note the recorded recombinant barcode read abundance (log10) for GGGCCTACTTGGGTTCTAACCTGTTGCTT (site GGGCCTACTTA) , which is 0.063

Kindly note the recorded recombinant barcode read abundance (log10) for CTACATCCTTGGGTTCTAACCTGTTGCTT (site CTACATCCTAA) , which is 1.49

Kindly note the recorded recombinant barcode read abundance (log10) for CCAAGGGCTTGGGTTCTAACCTGTTGCCG (site CCAAGGGCTCG) , which is 0.143

Kindly note the recorded recombinant barcode read abundance (log10) for ATCACTACTTGGGTTCTAACCTGTTGCCT (site CTTACTACTAG) , which is 0.0823

Kindly note the recorded recombinant barcode read abundance (log10) for ACGCGAGCTTGGGTTCTAACCTGTTGCCG (site ACGCGAGCTCT) , which is 0.215

Kindly note the recorded recombinant barcode read abundance (log10) for TGTCGGACTTGGGTTCTAACCTGTTGCAT (site TGTCGGACTGT) , which is 0.0199

====

Assay: recombinant UMI read abundance after kanamycin selection (control-corrected) (log10(CPM+1)); higher = more efficient recombination; extreme values may be limits of the assay; sequences stand for … in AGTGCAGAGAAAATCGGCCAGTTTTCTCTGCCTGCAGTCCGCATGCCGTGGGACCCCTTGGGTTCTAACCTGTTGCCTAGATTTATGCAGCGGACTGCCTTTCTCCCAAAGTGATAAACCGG…AGGTTGGTTTCACT; site = the 11-nt donor
Reported recombinant UMI read abundance (log10) values for the following sequences.
Reply: number alone, nothing else.

GTGGGTACATGGACCGGTTTTCCCGGTAATCCGTATTTGAC (site GTGGGTACTGT): 2.91
CCGCTTACATGGACCGGTTTTCCCGGTAATCCGTATTTGCT (site CCGATTACTAG): 0
GAATGCACATGGACCGGTTTTCCCGGTAATCCGTATTTGTA (site GGATGCACTTA): 0.585

Kindly note the recorded recombinant UMI read abundance (log10) for GGCTCGTCATGGACCGGTTTTCCCGGTAATCCGTATTTGCA (site GGCTCGTCTTG) , which is 2.16

Kindly note the recorded recombinant UMI read abundance (log10) for GTGTCCGCATGGACCGGTTTTCCCGGTAATCCGTATTTGGC (site GTGTCCGCTGC) , which is 2.26

Kindly note the recorded recombinant UMI read abundance (log10) for GGGCAGGCATGGACCGGTTTTCCCGGTAATCCGTATTTGAG (site GGGCAGGCTCT) , which is 1.48

Kindly note the recorded recombinant UMI read abundance (log10) for CCTCTAGCATGGACCGGTTTTCCCGGTAATCCGTATTTGTA (site CCTCTAGCTTA) , which is 0.352

Kindly note the recorded recombinant UMI read abundance (log10) for ACACATCCATGGACCGGTTTTCCCGGTAATCCGTATTTGGC (site ACACATCCTGT) , which is 1.19

====

Experiment: recombinant UMI read abundance after kanamycin selection (control-corrected) (log10(CPM+1)); higher = more efficient recombination; extreme values may be limits of the assay; sequences stand for … in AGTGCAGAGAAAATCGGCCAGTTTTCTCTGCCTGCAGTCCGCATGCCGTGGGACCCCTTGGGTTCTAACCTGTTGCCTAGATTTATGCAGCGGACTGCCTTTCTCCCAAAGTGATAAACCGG…AGGTTGGTTTCACT; site = the 11-nt donor
Reported recombinant UMI read abundance (log10) values for the following sequences.
Reply: number alone, nothing else.

Kindly note the recorded recombinant UMI read abundance (log10) for GTAGGTCCATGGACCGGTTTTCCCGGTAATCCGTATTTGAC (site GTAGGTACTGT) , which is 0

Kindly note the recorded recombinant UMI read abundance (log10) for GGCTCTGCATGGACCGGTTTTCCCGGTAATCCGTATTTGCT (site GGCTCTGCTAG) , which is 1.66

Kindly note the recorded recombinant UMI read abundance (log10) for TACACCTCATGGACCGGTTTTCCCGGTAATCCGTATTTGCA (site TACACCTCTTG) , which is 2.35

====

Experiment: recombinant barcode read abundance after kanamycin selection (control-corrected) (log10(CPM+1)); higher = more efficient recombination; sequences stand for … in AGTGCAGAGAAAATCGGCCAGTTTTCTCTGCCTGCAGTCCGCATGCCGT…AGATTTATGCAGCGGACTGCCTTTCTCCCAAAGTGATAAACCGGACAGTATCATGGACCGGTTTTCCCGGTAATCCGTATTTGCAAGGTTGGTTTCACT; site = the 11-nt target
experimental.endpoint: recombinant barcode read abundance (log10)
Reply: number alone, nothing else.

Sample records with recombinant barcode read abundance (log10):
TATAGAGCTTGGGTTCTAACCTGTTGCGG (site TATAGAGCTCC): 2.21
CTCGCAGCTTGGGTTCTAACCTGTTGCGG (site CTCGCGACTCC): 0.141

Kindly note the recorded recombinant barcode read abundance (log10) for CCGTGGACTTGGGTTCTAACCTGTTGCCA (site CAGGGGACTTG) , which is 0.111

====

Assay: recombinant UMI read abundance after kanamycin selection (control-corrected) (log10(CPM+1)); higher = more efficient recombination; extreme values may be limits of the assay; sequences stand for … in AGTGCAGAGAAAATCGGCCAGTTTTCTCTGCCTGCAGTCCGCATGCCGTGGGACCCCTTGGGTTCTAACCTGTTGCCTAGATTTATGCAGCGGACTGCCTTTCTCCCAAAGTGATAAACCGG…AGGTTGGTTTCACT; site = the 11-nt donor
experimental.endpoint: recombinant UMI read abundance (log10)
Reply: number alone, nothing else.

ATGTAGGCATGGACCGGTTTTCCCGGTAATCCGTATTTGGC (site ATGTAGGCTGG): 2.41

Kindly note the recorded recombinant UMI read abundance (log10) for GGGAAGCCATGGACCGGTTTTCCCGGTAATCCGTATTTGTT (site CGGAATCCTAA) , which is 0

====

Test: recombinant barcode read abundance after kanamycin selection (control-corrected) (log10(CPM+1)); higher = more efficient recombination; sequences stand for … in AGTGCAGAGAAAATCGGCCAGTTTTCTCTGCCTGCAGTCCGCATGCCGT…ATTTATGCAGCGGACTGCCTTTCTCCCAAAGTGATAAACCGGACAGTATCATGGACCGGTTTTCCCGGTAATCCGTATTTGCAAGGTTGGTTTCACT; site = the 11-nt target
experimental.endpoint: recombinant barcode read abundance (log10)
Reply: number alone, nothing else.

GGGCGGACGTGGGTTCTAACCTGTTGCGGAG [GGGCGGACTCC_LTGcore_CG_RTGcore_CT] (site GGGCGGACTCC) (LTG core: CG, RTG core: CT): 1.66
AGGAGGTCTTGGGTTCTAACCTGTTGCCTGC [AGGAGGTCTAG_LTGcore_CT_RTGcore_GC] (site AGGAGGTCTAG) (LTG core: CT, RTG core: GC): 0.814

Kindly note the recorded recombinant barcode read abundance (log10) for TAGAGGGGTTGGGTTCTAACCTGTTGCGGAC [TAGAGGGCTCC_LTGcore_GT_RTGcore_GT] (site TAGAGGGCTCC) (LTG core: GT, RTG core: GT) , which is 0.189

Kindly note the recorded recombinant barcode read abundance (log10) for AGTCTTACTTGGGTTCTAACCTGTTGCCAAC [AGTCTTACTTG_LTGcore_CT_RTGcore_GT] (site AGTCTTACTTG) (LTG core: CT, RTG core: GT) , which is 0.0371

Kindly note the recorded recombinant barcode read abundance (log10) for GGCTCCCCTTGGGTTCTAACCTGTTGCGGTA [GGCTCCCCTCC_LTGcore_CT_RTGcore_TA] (site GGCTCCCCTCC) (LTG core: CT, RTG core: TA) , which is 0.101

Kindly note the recorded recombinant barcode read abundance (log10) for AGGCGGTCGTGGGTTCTAACCTGTTGCTTCG [AGGCGGTCTAA_LTGcore_CG_RTGcore_CG] (site AGGCGGTCTAA) (LTG core: CG, RTG core: CG) , which is 0.228

Kindly note the recorded recombinant barcode read abundance (log10) for GAGTCCTTCTGGGTTCTAACCTGTTGCCTGA [GAGTCCTCTAG_LTGcore_TC_RTGcore_TC] (site GAGTCCTCTAG) (LTG core: TC, RTG core: TC) , which is 0.0603
